Numbers sourced from patent US20190276439A1.

# testSystem: FGFR1 (Homo sapiens, UniProt P11362)
# Sequence (P11362 22-822): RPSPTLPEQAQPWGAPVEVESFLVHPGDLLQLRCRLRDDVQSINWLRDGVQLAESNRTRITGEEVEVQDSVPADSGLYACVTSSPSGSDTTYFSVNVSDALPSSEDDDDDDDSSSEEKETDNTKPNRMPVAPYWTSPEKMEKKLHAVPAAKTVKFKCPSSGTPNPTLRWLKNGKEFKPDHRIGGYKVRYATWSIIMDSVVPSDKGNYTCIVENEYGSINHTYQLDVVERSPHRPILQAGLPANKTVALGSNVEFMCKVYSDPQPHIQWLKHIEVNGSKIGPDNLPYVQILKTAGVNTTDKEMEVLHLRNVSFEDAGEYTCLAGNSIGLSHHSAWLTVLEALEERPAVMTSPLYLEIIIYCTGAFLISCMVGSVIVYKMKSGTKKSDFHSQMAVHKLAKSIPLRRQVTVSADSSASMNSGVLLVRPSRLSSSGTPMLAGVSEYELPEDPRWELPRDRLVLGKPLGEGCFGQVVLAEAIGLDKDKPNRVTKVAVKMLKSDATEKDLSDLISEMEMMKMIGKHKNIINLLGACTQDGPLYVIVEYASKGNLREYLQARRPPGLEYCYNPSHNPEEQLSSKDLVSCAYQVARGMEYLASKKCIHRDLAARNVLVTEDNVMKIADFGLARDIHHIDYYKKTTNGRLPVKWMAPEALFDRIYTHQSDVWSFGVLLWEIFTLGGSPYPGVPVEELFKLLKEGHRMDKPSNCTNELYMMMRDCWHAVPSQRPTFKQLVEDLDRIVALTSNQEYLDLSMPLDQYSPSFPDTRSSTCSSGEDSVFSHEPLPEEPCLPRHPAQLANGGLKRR
reportedEndpoint: IC50 (nM)
Provide only the numeric value, understood in nM.

The compound "Cc1cc2cc(Oc3ccnc(Nc4cccc(CS(=O)(=O)NCCN(C)C)c4)n3)ccc2[nH]1" on FGFR1 (Homo sapiens, UniProt P11362): IC50 was 15

* * *

# testSystem: VEGFR 1 (Homo sapiens, UniProt P17948)
# Sequence (P17948 27-1338): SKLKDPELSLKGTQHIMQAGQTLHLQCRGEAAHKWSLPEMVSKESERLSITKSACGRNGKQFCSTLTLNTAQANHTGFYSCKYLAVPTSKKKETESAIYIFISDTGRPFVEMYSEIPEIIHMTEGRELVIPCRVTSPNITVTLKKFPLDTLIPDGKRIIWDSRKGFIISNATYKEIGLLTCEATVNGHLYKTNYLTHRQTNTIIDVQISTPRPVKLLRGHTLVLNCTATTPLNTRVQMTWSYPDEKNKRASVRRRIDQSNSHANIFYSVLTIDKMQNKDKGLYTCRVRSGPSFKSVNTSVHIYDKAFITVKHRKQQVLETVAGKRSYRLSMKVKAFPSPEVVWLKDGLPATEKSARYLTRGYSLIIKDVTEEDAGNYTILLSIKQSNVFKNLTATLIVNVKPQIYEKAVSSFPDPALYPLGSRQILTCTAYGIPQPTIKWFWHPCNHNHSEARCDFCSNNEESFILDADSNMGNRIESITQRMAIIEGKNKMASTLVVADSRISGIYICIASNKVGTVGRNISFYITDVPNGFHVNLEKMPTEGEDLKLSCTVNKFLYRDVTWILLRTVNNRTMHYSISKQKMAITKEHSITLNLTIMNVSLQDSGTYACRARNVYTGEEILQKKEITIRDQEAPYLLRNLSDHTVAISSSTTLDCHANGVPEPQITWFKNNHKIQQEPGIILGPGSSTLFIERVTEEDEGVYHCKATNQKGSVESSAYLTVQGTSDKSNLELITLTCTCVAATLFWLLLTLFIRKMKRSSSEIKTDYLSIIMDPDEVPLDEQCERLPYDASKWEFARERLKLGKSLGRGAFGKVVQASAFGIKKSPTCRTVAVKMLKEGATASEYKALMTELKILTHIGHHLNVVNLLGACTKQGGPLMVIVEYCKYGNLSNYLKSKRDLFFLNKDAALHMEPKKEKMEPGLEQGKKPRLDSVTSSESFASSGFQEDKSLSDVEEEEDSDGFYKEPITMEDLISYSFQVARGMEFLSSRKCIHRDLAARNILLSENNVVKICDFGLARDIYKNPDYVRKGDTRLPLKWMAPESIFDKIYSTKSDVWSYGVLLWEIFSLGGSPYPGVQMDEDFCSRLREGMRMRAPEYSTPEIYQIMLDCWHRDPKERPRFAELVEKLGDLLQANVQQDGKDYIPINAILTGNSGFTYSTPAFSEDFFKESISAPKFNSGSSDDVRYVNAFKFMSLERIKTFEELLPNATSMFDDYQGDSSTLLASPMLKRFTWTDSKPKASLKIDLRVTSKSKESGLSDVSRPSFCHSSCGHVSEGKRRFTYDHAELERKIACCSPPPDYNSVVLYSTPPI
reportedEndpoint: pIC50
Value format note: pIC50 is -log10 of concentration (mol/L); just state the number.

The compound "Cc1cc2cc(Oc3ccnc(Nc4cccc(CS(=O)(=O)NCCN(C)C)c4)n3)ccc2[nH]1" showed pIC50 equal to 8.70

* * *

# testSystem: VEGFR 2 (Homo sapiens)
# Sequence (P35968 20-1356): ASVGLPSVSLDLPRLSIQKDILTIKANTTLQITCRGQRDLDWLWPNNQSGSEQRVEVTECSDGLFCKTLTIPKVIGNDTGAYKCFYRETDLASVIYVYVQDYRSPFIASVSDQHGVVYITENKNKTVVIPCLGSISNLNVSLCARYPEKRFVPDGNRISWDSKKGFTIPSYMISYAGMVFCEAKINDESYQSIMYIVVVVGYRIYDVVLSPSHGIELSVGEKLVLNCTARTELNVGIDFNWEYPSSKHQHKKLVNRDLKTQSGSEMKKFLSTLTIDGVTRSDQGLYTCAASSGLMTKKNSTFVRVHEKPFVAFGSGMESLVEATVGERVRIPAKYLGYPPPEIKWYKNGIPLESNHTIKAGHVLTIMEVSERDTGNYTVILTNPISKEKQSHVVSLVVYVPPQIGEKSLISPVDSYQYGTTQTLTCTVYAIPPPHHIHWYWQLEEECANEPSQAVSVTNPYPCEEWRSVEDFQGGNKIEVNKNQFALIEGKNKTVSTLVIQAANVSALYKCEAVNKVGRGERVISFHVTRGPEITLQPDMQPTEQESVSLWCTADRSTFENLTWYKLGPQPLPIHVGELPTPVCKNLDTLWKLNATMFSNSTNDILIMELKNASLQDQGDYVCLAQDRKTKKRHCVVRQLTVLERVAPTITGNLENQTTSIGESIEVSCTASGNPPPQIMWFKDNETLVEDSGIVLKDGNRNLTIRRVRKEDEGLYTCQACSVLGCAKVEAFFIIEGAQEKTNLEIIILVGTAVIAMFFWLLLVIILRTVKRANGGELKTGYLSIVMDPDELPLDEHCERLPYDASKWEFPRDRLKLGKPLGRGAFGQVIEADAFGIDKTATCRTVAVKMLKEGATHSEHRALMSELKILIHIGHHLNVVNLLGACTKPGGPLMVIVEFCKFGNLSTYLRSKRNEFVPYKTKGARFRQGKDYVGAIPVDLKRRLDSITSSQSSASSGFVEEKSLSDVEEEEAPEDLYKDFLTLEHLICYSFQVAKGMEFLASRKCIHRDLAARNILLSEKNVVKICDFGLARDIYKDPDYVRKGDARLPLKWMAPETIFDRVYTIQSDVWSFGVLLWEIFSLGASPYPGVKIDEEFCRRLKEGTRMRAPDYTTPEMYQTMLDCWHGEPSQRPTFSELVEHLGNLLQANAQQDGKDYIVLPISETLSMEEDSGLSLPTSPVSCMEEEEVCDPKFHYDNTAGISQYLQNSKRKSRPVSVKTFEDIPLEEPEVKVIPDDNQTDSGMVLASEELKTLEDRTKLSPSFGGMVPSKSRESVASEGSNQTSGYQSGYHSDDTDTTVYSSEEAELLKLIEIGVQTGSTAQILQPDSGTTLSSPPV
reportedEndpoint: IC50

The molecule "Cc1cc2cc(Oc3ccnc(Nc4cccc(CS(=O)(=O)NCCN(C)C)c4)n3)ccc2[nH]1" on VEGFR 2 (Homo sapiens): IC50 was 24 nM

* * *

# testSystem: VEGFR 3 (Homo sapiens)
# Sequence (P35916 25-1363): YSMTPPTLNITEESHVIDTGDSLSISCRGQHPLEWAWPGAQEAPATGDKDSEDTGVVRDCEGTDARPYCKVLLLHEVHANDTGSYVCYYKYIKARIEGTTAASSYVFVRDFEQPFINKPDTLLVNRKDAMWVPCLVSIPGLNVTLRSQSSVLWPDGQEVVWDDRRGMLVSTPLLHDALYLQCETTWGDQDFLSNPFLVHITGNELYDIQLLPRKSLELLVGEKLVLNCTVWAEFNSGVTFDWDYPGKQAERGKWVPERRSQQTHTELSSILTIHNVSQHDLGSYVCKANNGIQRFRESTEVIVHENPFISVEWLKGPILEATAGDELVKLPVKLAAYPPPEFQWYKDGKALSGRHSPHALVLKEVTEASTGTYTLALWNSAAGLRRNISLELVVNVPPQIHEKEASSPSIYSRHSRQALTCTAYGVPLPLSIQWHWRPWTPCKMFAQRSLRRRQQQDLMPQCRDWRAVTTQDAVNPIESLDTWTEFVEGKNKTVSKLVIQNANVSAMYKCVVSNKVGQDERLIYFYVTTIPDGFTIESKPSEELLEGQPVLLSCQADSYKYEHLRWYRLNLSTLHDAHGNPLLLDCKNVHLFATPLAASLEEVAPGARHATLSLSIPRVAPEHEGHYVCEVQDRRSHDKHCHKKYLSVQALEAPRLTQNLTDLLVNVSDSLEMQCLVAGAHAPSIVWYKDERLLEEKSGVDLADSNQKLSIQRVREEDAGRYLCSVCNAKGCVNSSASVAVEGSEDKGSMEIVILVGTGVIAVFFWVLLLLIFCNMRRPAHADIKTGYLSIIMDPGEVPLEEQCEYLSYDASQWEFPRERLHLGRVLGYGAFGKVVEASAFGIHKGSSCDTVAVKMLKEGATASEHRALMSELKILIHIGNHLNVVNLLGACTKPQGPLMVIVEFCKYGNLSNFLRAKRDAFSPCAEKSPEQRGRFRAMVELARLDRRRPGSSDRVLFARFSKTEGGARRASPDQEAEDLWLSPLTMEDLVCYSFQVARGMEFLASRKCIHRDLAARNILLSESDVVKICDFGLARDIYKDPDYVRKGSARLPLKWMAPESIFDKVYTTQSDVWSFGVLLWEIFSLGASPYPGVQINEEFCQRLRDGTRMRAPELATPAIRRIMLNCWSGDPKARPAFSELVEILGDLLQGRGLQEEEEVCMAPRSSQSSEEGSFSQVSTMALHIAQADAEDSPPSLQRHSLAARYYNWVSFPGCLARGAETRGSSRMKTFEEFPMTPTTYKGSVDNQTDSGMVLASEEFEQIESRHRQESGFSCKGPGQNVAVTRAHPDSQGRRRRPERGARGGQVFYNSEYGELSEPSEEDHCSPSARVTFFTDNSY
reportedEndpoint: IC50 (nM)
Provide only the numeric value, understood in nM.

The molecule "Cc1cc2cc(Oc3ccnc(Nc4cccc(CS(=O)(=O)NCCN(C)C)c4)n3)ccc2[nH]1" showed IC50 equal to 1

* * *

# testSystem: 278 other kinases
# procedureSummary: Compound A kinase selectivity profile
reportedEndpoint: IC50

The compound "Cc1cc2cc(Oc3ccnc(Nc4cccc(CS(=O)(=O)NCCN(C)C)c4)n3)ccc2[nH]1" showed IC50 equal to > 150 nM
